Recorded values, source patent US20170022171A1.

# TARGET_OF_ASSAY: human macrophage elastase (HME/hMMP-12) (Homo sapiens)
# Construct: 0.5 nM HME
# Sequence (P39900 106-470): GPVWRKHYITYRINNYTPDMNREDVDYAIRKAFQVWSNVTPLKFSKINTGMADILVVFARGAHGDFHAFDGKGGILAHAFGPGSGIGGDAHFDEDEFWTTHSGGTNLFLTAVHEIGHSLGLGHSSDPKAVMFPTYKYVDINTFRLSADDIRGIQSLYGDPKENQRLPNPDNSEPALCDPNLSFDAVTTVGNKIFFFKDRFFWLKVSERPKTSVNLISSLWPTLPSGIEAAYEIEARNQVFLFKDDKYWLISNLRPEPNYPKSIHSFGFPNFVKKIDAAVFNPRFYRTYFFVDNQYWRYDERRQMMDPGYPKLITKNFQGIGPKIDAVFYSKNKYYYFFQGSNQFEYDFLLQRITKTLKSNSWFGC
# PROTOCOL_TEXT: In vitro HME inhibition test (standard or high-sensitivity)
# ASSAY_CONDITIONS: in some cases mean values
Rule: IC50 below 0.06 nM gives 1 (yes). Equal to or above 0.06 nM gives 0 (no).

Field: example entries. Status: answers known.
Cc1ccc2nnn(C[C@H]3CC[C@@H](C(=O)c4ccc(OCc5cccc(Cl)c5)cc4)[C@@H]3C(=O)O)c(=O)c2c1 (single isomer, unassigned) [Example 105]    0 (no)
O=C(O)[C@H]1[C@H](Cn2nnc3ccc(C(F)(F)F)cc3c2=O)CC[C@@H]1C(=O)c1ccc(SCc2cccc(Cl)c2)cc1 (racemic)    0 (no)
O=C(O)[C@H]1[C@H](Cn2nnc3ccc(C(F)(F)F)cc3c2=O)CC[C@@H]1C(=O)c1ccc(OCCCc2ccccc2)cc1 (racemic)    1 (yes)
O=C(O)[C@H]1[C@H](Cn2nnc3ccc(C(F)(F)F)cc3c2=O)CC[C@@H]1C(=O)c1ccc(OCCc2ccccc2)cc1 (racemic)    0 (no)
O=C(O)[C@H]1[C@H](Cn2nnc3ccccc3c2=O)CC[C@@H]1C(=O)c1ccc(OCC2CCCC2)cc1 (racemic)    1 (yes)
O=C(O)[C@H]1[C@H](Cn2nnc3ccc(C(F)(F)F)cc3c2=O)CC[C@@H]1C(=O)c1ccc(OCC2CC2)cc1 (racemic)    0 (no)
O=C(O)[C@H]1[C@H](Cn2nnc3ccc(C(F)(F)F)cc3c2=O)CC[C@@H]1C(=O)c1ccc(SCC2CCCCC2)cc1 (racemic)    0 (no)
O=C(O)[C@H]1[C@H](Cn2nnc3ccccc3c2=O)CC[C@@H]1C(=O)c1ccc(OCc2ccc(Cl)c(Cl)c2)cc1 (racemic)    1 (yes)

// query A record lists Cc1ccc2nnn(C[C@@H]3CC[C@H](C(=O)c4ccc(OCCCc5ccccc5)cc4)[C@H]3C(=O)O)c(=O)c2c1 (racemic) . Is its IC50 below 0.06 nM?
// result 0 (no)
